# system: SIX1-Q177R homeodomain (human, UniProt Q15475 108-198, Q177R)
# Sequence: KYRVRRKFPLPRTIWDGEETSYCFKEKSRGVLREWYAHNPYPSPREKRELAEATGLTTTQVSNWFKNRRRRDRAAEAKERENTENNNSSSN
# testDetails: universal protein binding microarray; Universal all-10-mer PBM (8x60K, AMADID 030236), 300 nM GST-tagged protein, Alexa Fluor 488 anti-GST; buffer, salt, pH and temperature not stated (as in Berger); high values mean tight binding
# experimentalConditions: protein: ivt; tags: N-terminal GST; dsDNA, one strand shown
The full ranking holds about 33,000 sequences; the median of “e-score” is about -0.05, and the highest 2% start at about 0.38. Only a selection was taken, and the highest values are over-represented in it overall.
quantityKind: binding signal (E-score)
I only need the number, in E-score, no unit after it.

AGGCGGGG ... 0.159
ACACAATC ... 0.178
ACCCCTTA ... 0.228
CGGTGTGA ... 0.434
CACACCAA ... 0.38
CACACCAG ... 0.416
ACACCTTC ... 0.46
AGGTGTGA ... 0.41

Task item: Entry GTGTGTGA needs its binding signal filled in; supply it.
Reply: 0.229

Task item: Look up and report measured binding signal for this entry: GAGTGTGA
Reply: 0.29

Task item: Given AGGTGTGC , respond with its binding signal.
Reply: 0.322

====

# system: SIX1-Q177R homeodomain (human, UniProt Q15475 108-198, Q177R)
# Sequence: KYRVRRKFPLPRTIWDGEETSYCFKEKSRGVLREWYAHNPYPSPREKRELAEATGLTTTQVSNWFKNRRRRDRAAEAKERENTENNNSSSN
# testDetails: universal protein binding microarray; Universal all-10-mer PBM (8x60K, AMADID 030236), 300 nM GST-tagged protein, Alexa Fluor 488 anti-GST; buffer, salt, pH and temperature not stated (as in Berger); high values mean tight binding
# experimentalConditions: protein: ivt; tags: N-terminal GST; dsDNA, one strand shown
The full ranking holds about 33,000 sequences; the median of “e-score” is about -0.05, and the highest 2% start at about 0.38. This excerpt belongs to a sample that is enriched for the highest values.
Category key, based on recorded binding signal: small value: < 0.2 E-score; mid value: ≥ 0.2 E-score and < 0.3 E-score; large value: ≥ 0.3 E-score

Some entries whose results are on file:
CACCGCGA ... mid value
ACCCTCCG ... mid value
AGAGTCAT ... small value
CCCCGACA ... large value
GTCGTGTA ... large value

Task item: Hi there! Could you help me figure out the category for AAAGGGGG please?
Reply: mid value

Task item: For this sequence, which bin applies? GAGTATCA
Reply: mid value

Task item: Each sequence maps to one class by binding signal. Which class for CAAACACC ?
Reply: large value

Task item: Place this sequence in its band: ACCCGACG
Reply: mid value

====

# system: SIX1-Q177R homeodomain (human, UniProt Q15475 108-198, Q177R)
# Sequence: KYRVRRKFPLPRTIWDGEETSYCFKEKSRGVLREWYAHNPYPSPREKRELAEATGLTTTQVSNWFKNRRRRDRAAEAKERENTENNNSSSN
# testDetails: universal protein binding microarray; Universal all-10-mer PBM (8x60K, AMADID 030236), 300 nM GST-tagged protein, Alexa Fluor 488 anti-GST; buffer, salt, pH and temperature not stated (as in Berger); high values mean tight binding
# experimentalConditions: protein: ivt; tags: N-terminal GST; dsDNA, one strand shown
The full ranking holds about 33,000 sequences; the median of “e-score” is about -0.05, and the highest 2% start at about 0.38. Only a selection was taken, and the highest values are over-represented in it overall.
Categorized via binding signal: bottom: < 0.2 E-score; middle: ≥ 0.2 E-score and < 0.3 E-score; top: ≥ 0.3 E-score

AAACTAGA ... bottom
CGTGTAGA ... top
ACATGGTG ... top
CACCTCCG ... top
GCGACACC ... top

Task item: Just checking, what class would you give CACGTGAC here?
Reply: middle
